FYI, the data here is from PubChem BioAssay (NCI).

# Assay: NCI Yeast Anticancer Drug Screen. Data for the sgs1 mgt1 strain (AID 161);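 note: 0% = growth of cultures given vehicle only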
# Measurement Context: S. cerevisiae sgs1 mgt1 strain, at 50.0 µM, active compounds read high
The panel holds about 79,000 compounds, 15% with a hit somewhere; the sample as a whole holds those more often.
Measured Metric: growth inhibition (%)
The answer is to be given in %; state only the numeric part.

INSERT INTO assay_data (molecule, value_observed) VALUES
  ('N#CC1(C#N)C(C#N)(C#N)C12CCC2', 50.6),
  ('Cn1c(C2CCC(=O)N2Cc2ccccc2)n[nH]c1=S (stereo not given)', 74.4),
  ('COc1ccc(/C=C2\CCCc3ccccc3C2=O)cc1', 77.7),
  ('CO/N=C/c1cc(NC(=S)c2ccoc2C)ccc1Cl', 93.7),
  ('CC1Cc2ccc3c(c2C(c2ccc4c(c2)OCO4)C1C)OCO3 (stereo not given)', -5.1);

What value of growth inhibition has been recorded for this entry: CSc1nc2c(c(=O)[nH]1)C1C=C(C)CCC1C(C)(C)C2 (stereo not given)
56

What value of growth inhibition has been recorded for this entry: COC(=O)[C@@]12OC[C@]34[C@H]([C@@H](O)[C@@H]1O)[C@@]1(C)CC(=O)C(O)=C(C)[C@@H]1C[C@H]3OC(=O)[C@H](OC(=O)C(Cc1ccccc1)NC(=O)OC(C)(C)C)[C@@H]24 (stereo not given in full)
86.8

What value of growth inhibition has been recorded for this entry: CC(=O)SC(C[N+](=O)[O-])c1ccc2c(c1)OCO2 (stereo not given)
93.5

What value of growth inhibition has been recorded for this entry: `c1ccc([B-](c2ccccc2)(c2ccccc2)c2ccccc2)cc1`
98.2

What value of growth inhibition has been recorded for this entry: `CCN(CC)CCNc1ccc(C)c2oc3ccc(O)cc3c(=O)c12`
81.5

---

Documented growth inhibition across a set of compounds
# Assay: NCI Yeast Anticancer Drug Screen. Data for the sgs1 mgt1 strain (AID 161);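 note: 0% = growth of cultures given vehicle only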
# Measurement Context: S. cerevisiae sgs1 mgt1 strain, at 5.0 µM (retest, dose inferred, filed as 0.5), active compounds read high
The panel holds about 79,000 compounds, 15% with a hit somewhere; the sample as a whole holds those more often.
The answer is to be given in %; state only the numeric part.

What value of growth inhibition has been recorded for this entry: `C=Cc1ccccc1C1(O)C=CC(OC)(OC)C=C1`
12

What value of growth inhibition has been recorded for this entry: `COc1ccc(-c2[nH]c(-c3ccc(OC)cc3)c(-c3ccccn3)c2-c2ccccn2)cc1`
0

What value of growth inhibition has been recorded for this entry: NC(=O)NCCCCC1NC(=S)N(c2ccccc2)C1=O (centres undefined)
-7

What value of growth inhibition has been recorded for this entry: O=C1NC(CSSCC2NC(=O)N(c3ccccc3)C2=O)C(=O)N1c1ccccc1 (centres undefined)
16

What value of growth inhibition has been recorded for this entry: `Cc1ccccc1C(O)(c1ccccc1C)C1(O)CCN(C)CC1`
2

What value of growth inhibition has been recorded for this entry: `CC(=N/NC(=S)NCC(C)C)/C(C)=N\Nc1ccc(Cl)cc1`
1

---

# Assay: NCI Yeast Anticancer Drug Screen. Data for the mec2-1 strain (AID 157)
# Measurement Context: S. cerevisiae mec2-1 strain, at 50.0 µM, active compounds read high
# Description: Growth inhibition of yeast strains with defined genetic alterations is measured as a screen for potential anti-cancer activity. Selected strains with alterations in DNA damage repair or cell cycle control were exposed to compounds and growth inhibition was measured relative to vehicle treated controls. The strain used in this assay is mec2-1
Compounds without any hit were thinned out: in the full panel of roughly 79,000, 15% have a hit.
Documented growth inhibition across a set of compounds
The answer is to be given in %; state only the numeric part.

INSERT INTO assay_data (compound, measured_metric, value_observed) VALUES
  ('O=S(=O)(CCNCCCCC1CCCCC1)SCCNCCCCC1CCCCC1', 'growth inhibition', 49.1),
  ('CC(C)(C)c1cc(C(=O)[O-])c([OH2+])c(C(C)(C)C)c1.CC(C)(C)c1cc(C(=O)[O-])c([OH2+])c(C(C)(C)C)c1.[Mn+2]', 'growth inhibition', 98.8),
  ('CCOC(=O)CC1C(=O)N(c2nc(-c3ccc(Br)cc3)cs2)N=C1C (stereo not drawn)', 'growth inhibition', 23.1);

What value of growth inhibition has been recorded for this entry: `O=C(CSc1nnc(Cc2ccccc2)o1)Nc1cccc(Cl)c1`
70

What value of growth inhibition has been recorded for this entry: `O=C(c1ccc(O)c(Br)c1)c1cc(Br)ccc1O`
96.9

What value of growth inhibition has been recorded for this entry: COc1cccc(C2c3cc4c(cc3OC(N3CCCC3)C2C)OCO4)c1 (stereo not drawn)
82
